STUDY TARGET: 5HT2C receptors (Homo sapiens)
ASSAY OVERVIEW: Human 5-HT2C functional assay in CHO-K1 cells (calcium flux, FLIPR)
Format: cell-based
Set-up: expressed in transfected cells; host or cells: CHO-K1 cells
PROTOCOL CONDITIONS: CHO-K1, read-out: Emax (%), 5-HT2c Agonist Activity, CHO-K1 cells; percentage relative to the effect of serotonin
Response field label: string, one of Yes (Emax strictly below 90%) or No.

Find out if reported Emax for O=C1NCC2CNCCN2c2ccccc21 (stereo not shown) is less than 90%
No

Report whether reported Emax is lower than 90% (strictly) for O=C1CC2CNCCN2c2ncccc2N1 (stereo not shown)
No

Emax strictly < 90% for this compound? `c1cncc(-c2cccc3c2OCC[C@H]2CNCCN32)c1`
Yes

is_below(Emax, 90%) for `Fc1ccc2c(c1)OCC[C@H]1CNCCN21` ?
No

For this compound, is Emax lower than 90%? `Brc1ccc2c(c1)NCC[C@H]1CNCCN21`
No

Report whether reported Emax is lower than 90% (strictly) for `O=C1C[C@@H]2CNCCN2c2cccc(F)c2N1`
No

Given CN1C(=O)CC2CNCCN2c2ccc(Cl)cc21 (stereo not shown) , is recorded Emax strictly lower than 90%?
No

Quick check: Emax of `Cc1ccc2c(c1)N1CCNC[C@@H]1CCO2` under 90%?
No

State whether 90% exceeds Emax recorded for `Fc1cccc2c1N1CCNC[C@@H]1CCO2` .
Yes

Please determine if `CN1CCN2c3ccccc3OCC[C@H]2C1` is below 90% in terms of Emax.
No

Field: below-cutoff. Rule: recorded Emax strictly less than 90%. Subject: `C[C@H]1CN2c3ccccc3OCC[C@H]2CN1`
Yes

# check: Emax < 90% for `CC(C)N1CCN2c3ccccc3OCC[C@H]2C1`
Yes

Quick check: Emax of `CN1CCN2c3ccc(Cl)cc3OCC[C@H]2C1` under 90%?
Yes

# TODO verify Emax < 90% strictly for this compound: `O=C1C[C@H]2CNCCN2c2cccc(Cl)c2N1`
No

Identify whether the compound `Cc1c(F)ccc2c1OCC[C@H]1CNCCN21` records Emax below 90%.
No

Lab note: Emax threshold 90%. Does this compound come in strictly under it? Cc1cccc2c1NC(=O)CC1CNCCN21 (stereo not shown)
No

A record lists O=C1CC2CNCCN2c2cc(-c3ccccn3)ccc2N1 (stereo not shown) . Is its Emax below 90%?
No

Please let me know if `CN1CCN2c3cccc(F)c3NC(=O)C[C@H]2C1` shows Emax below 90%.
No

A record lists `Fc1cccc2c1OCC[C@H]1CNCCN21` . Is its Emax below 90%?
No

Is 90% strictly greater than the compound's reported Emax? compound: O=C1CC2CNCCN2c2cccc(Cl)c2N1 (stereo not shown)
No

Dear colleague, could you confirm whether Emax of C[C@@H]1C[C@H]2CNCCN2c2ccccc2O1 (single isomer, unassigned) falls below 90%? Thanks.
No

* * *

So I've got a bunch of compounds here, and I need their EC50 values.
STUDY TARGET: 5HT2C receptors (Homo sapiens, UniProt P28335)
Sequence (P28335 33-458): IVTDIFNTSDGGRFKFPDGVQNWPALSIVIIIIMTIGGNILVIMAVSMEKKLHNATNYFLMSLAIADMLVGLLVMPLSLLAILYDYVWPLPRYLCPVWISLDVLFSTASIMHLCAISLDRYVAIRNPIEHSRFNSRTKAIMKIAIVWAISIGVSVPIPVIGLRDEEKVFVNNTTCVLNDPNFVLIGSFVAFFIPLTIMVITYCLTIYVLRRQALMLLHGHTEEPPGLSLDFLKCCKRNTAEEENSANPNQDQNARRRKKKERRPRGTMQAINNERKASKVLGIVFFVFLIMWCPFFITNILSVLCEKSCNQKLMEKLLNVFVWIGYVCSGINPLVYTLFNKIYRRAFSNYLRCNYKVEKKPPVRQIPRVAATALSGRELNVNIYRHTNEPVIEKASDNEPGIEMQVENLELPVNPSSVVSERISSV
ASSAY OVERVIEW: Human 5-HT2C functional assay in 1321N1 cells (intracellular calcium, FLIPR)
Format: cell-based
Set-up: expressed in transfected cells; host or cells: 1321N1 cells
PROTOCOL CONDITIONS: 1321N1 cells stably transfected, maximum calcium response; read-out: EC50 (μM), 5-HT2c Agonist Activity
Please give a number only; it is taken to be in µM.

Consider the compound shown here: `O=C1C[C@H]2CNCCN2c2cc(CCc3ccccc3)ccc2N1` What is its recorded EC50?
0.0011

Quick check: EC50 of Clc1ccc2c(c1)N1CCNCC1CCN2 (stereo not drawn) ?
0.0037

Report EC50 for `Cc1ccc2c(c1)N1CCNC[C@@H]1CC(=O)N2` please.
0.0015

// query EC50 value for entry `O=C1C[C@H]2CNCCN2c2cc(Cl)ccc2N1`
0.002

If you can, please state the reported EC50 value of O=C1CC2CNCCN2c2c(F)cccc2N1 (stereo not drawn) .
0.0142

What value of measured EC50 is listed for O=C1CC2CNCCN2c2cc(/C=C/c3ccc(F)cc3)ccc2N1 (stereo not drawn) ?
0.0855

Cited source for all entries: patent US8546377B2
